Reference source for all entries: paper PMC4673902

test_system: UniProt:Q9Y4C1
Sequence (Q9Y4C1 1-1321): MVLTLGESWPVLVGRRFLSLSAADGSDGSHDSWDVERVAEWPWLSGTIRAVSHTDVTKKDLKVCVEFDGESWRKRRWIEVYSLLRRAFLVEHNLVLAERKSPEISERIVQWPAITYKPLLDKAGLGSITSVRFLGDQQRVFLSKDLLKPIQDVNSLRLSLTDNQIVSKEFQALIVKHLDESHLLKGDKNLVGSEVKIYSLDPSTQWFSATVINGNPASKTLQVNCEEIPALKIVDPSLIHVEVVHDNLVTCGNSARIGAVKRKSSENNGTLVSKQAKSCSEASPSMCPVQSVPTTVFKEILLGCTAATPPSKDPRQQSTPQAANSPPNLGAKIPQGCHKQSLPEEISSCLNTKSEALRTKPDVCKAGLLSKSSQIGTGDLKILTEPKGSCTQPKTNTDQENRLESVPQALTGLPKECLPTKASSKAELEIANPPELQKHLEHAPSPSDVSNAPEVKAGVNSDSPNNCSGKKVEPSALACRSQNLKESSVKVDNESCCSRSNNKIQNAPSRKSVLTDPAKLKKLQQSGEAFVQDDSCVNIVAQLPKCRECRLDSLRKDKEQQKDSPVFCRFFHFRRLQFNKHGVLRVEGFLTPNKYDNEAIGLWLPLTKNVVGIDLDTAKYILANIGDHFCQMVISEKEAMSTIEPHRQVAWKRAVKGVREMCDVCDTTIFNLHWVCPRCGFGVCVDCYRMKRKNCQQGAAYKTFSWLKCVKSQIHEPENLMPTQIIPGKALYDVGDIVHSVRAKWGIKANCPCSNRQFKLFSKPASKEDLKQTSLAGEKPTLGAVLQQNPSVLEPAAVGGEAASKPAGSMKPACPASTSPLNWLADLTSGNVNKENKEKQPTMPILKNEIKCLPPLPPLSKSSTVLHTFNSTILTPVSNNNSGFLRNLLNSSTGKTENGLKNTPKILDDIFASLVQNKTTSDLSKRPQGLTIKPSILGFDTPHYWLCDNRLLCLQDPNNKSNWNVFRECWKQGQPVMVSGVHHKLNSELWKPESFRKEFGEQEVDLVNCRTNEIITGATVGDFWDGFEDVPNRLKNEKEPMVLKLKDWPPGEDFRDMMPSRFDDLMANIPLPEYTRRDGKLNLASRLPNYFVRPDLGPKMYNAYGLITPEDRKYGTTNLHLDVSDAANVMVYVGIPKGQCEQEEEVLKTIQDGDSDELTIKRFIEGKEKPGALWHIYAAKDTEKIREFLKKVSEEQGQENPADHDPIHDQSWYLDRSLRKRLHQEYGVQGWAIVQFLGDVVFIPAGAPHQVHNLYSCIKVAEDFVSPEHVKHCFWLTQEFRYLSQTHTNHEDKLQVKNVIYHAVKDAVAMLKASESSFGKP
measurement_kind: IC50

Q) Return reported IC50; argument: CN(C)NC(=O)CCC(=O)O [Daminozide, N-(dimethylamino)succinamic acid]
A) > 100 µM
